target: hGLP-1R (Homo sapiens, UniProt P43220); experiment: cell-based or functional assay
cAMP Emax for assorted binders
Give the number; % is assumed, so skip it.

See these solved cases before continuing.
{"columns": ["binder", "cAMP Emax / %"],
 "data": [
  ["YXEGTXTSDXXIXLDXKAQXEFIXXLIKGGPSSGAPPPS (Y-Aib-EGT-αMeF(2F)-TSD-4Pal-Aib-I-αMeL-LD-Orn-K((2-[2-(2-Amino-ethoxy)-ethoxy]-acetyl)-(γ-Glu)-CO-(CH2)10-CH3)AQ-Aib-EFI-(D-Glu)-αMeY-LIK((2-[2-(2-Amino-ethoxy)-ethoxy]-acetyl)-(γ-Glu)-CO-(CH2)10-CH3)GGPSSGAPPPS-NH2) [Example 427]", 109],
  ["YXEGTXTSDXXIXLDXKAQXKFIXXLIXGGPSSGAPPPS (Y-Aib-EGT-αMeF(2F)-TSD-4Pal-Aib-I-αMeL-LD-Orn-K((2-[2-(2-Amino-ethoxy)-ethoxy]-acetyl)2-(γ-Glu)-CO-(CH2)12-CO2H)AQ-Aib-K((2-[2-(2-Amino-ethoxy)-ethoxy]-acetyl)2-(γ-Glu)-CO-(CH2)12-CO2H)FI-(D-Glu)-αMeY-LI-Orn-GGPSSGAPPPS-NH2) [Example 406]", 98.5],
  ["YXEGTXTSDKXIXLDXKAQXXFIXXLIEGGPSSGAPPPS (Y-Aib-EGT-αMeF(2F)-TSDK((2-[2-(2-Amino-ethoxy)-ethoxy]-acetyl)2-(γ-Glu)-CO-(CH2)10-CH3)-Aib-I-αMeL-LD-Orn-K((2-[2-(2-Amino-ethoxy)-ethoxy]-acetyl)2-(γ-Glu)-CO-(CH2)10-CH3)AQ-Aib-Orn-FI-(D-Glu)-αMeY-LIEGGPSSGAPPPS-NH2) [Example 417]", 109],
  ["YXEGTXTSDXXIXLDXKAQXEXIXXLIKGGPSSGAPPPS (Y-Aib-EGT-αMeF(2F)-TSD-4Pal-Aib-I-αMeL-LD-Orn-K((2-[2-(2-Amino-ethoxy)-ethoxy]-acetyl)3-(γ-Glu)-CO-(CH2)10-CH3)AQ-Aib-E-αMeF-I-(D-Glu)-αMeY-LIK((2-[2-(2-Amino-ethoxy)-ethoxy]-acetyl)3-(γ-Glu)-CO-(CH2)10-CH3)GGPSSGAPPPS-NH2) [Example 438]", 88.5],
  ["YXEGTXTSDKXIXLDXKAQXEXIXXLIEGGPSSGAPPPS (Y-Aib-EGT-αMeF(2F)-TSDK((2-[2-(2-Amino-ethoxy)-ethoxy]-acetyl)3-(γ-Glu)-CO-(CH2)10-CH3)-Aib-I-αMeL-LD-Orn-K((2-[2-(2-Amino-ethoxy)-ethoxy]-acetyl)3-(γ-Glu)-CO-(CH2)10-CH3)AQ-Aib-E-αMeF-I-(D-Glu)-αMeY-LIEGGPSSGAPPPS-NH2) [Example 436]", 98.9],
  ["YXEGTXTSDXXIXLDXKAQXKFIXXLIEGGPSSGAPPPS (Y-Aib-EGT-αMeF(2F)-TSD-4Pal-Aib-I-αMeL-LD-Orn-K(PEG4-(γ-Glu)-CO-(CH2)12-CO2H)AQ-Aib-K(PEG4-(γ-Glu)-CO-(CH2)12-CO2H)FI-(D-Glu)-αMeY-LIEGGPSSGAPPPS-NH2) [Example 405]", 93.3],
  ["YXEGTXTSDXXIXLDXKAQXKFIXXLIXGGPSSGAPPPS (Y-Aib-EGT-αMeF(2F)-TSD-4Pal-Aib-I-αMeL-LD-Orn-K((2-[2-(2-Amino-ethoxy)-ethoxy]-acetyl)2-(γ-Glu)-CO-(CH2)10-CH3)AQ-Aib-K((2-[2-(2-Amino-ethoxy)-ethoxy]-acetyl)2-(γ-Glu)-CO-(CH2)10-CH3)FI-(D-Glu)-αMeY-LI-Orn-GGPSSGAPPPS-NH2) [Example 413]", 96.9],
  ["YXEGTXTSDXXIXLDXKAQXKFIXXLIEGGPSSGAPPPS (Y-Aib-EGT-αMeF(2F)-TSD-4Pal-Aib-I-αMeL-LD-Orn-K((2-[2-(2-Amino-ethoxy)-ethoxy]-acetyl)2-(γ-Glu)-CO-(CH2)12-CO2H)AQ-Aib-K((2-[2-(2-Amino-ethoxy)-ethoxy]-acetyl)2-(γ-Glu)-CO-(CH2)12-CO2H)FI-(D-Glu)-αMeY-LIEGGPSSGAPPPS-NH2) [Example 357]", 107]
]}

Notebook: YXEGTXTSDVXIXLDXKAQXKFIXXLIEGGPSSGAPPPS (Y-Aib-EGT-αMeF(2F)-TSDV-Aib-I-αMeL-LD-Orn-K((2-[2-(2-Amino-ethoxy)-ethoxy]-acetyl)2-(γ-Glu)-CO-(CH2)12-CO2H)AQ-Aib-K((2-[2-(2-Amino-ethoxy)-ethoxy]-acetyl)2-(γ-Glu)-CO-(CH2)12-CO2H)FI-(D-Glu)-αMeY-LIEGGPSSGAPPPS-NH2) [Example 318] , cAMP Emax read as 99.9

Notebook: YXEGTXTSDYXIXLDXKAQXEFIXXLIEGGPSSGAPPPSK (Y-Aib-EGT-αMeF(2F)-TSDY-Aib-I-αMeL-LD-Orn-K((2-[2-(2-Amino-ethoxy)-ethoxy]-acetyl)-(γ-Glu)-(10-(4-carboxyphenoxy)decanoyl))AQ-Aib-EFI-(D-Glu)-αMeY-LIEGGPSSGAPPPSK((2-[2-(2-Amino-ethoxy)-ethoxy]-acetyl)-(γ-Glu)-(10-(4-carboxyphenoxy)decanoyl))-NH2) [Example 374] , cAMP Emax read as 106

Notebook: YXEGTXTSDXXIXLDXKAQXKXIXXLIEGGPSSGAPPPS (Y-Aib-EGT-αMeF(2F)-TSD-4Pal-Aib-I-αMeL-LD-Orn-K((2-[2-(2-Amino-ethoxy)-ethoxy]-acetyl)3-(γ-Glu)-CO-(CH2)10-CH3)AQ-Aib-K((2-[2-(2-Amino-ethoxy)-ethoxy]-acetyl)3-(γ-Glu)-CO-(CH2)10-CH3)-αMeF-I-(D-Glu)-αMeY-LIEGGPSSGAPPPS-NH2) [Example 437] , cAMP Emax read as 89.2

Notebook: YXEGTXTSDXXIXLDXIAQXKFIXXLIEGGPSSGAPPPSK (Y-Aib-EGT-αMeF(2F)-TSD-4Pal-Aib-I-αMeL-LD-Orn-IAQ-Aib-K((2-[2-(2-Amino-ethoxy)-ethoxy]-acetyl)-(γ-Glu)-CO-(CH2)12-CO2H)FI-(D-Glu)-αMeY-LIEGGPSSGAPPPSK((2-[2-(2-Amino-ethoxy)-ethoxy]-acetyl)-(γ-Glu)-CO-(CH2)12-CO2H)-NH2) [Example 341] , cAMP Emax read as 99.9
